For each record, write down the corresponding Cmax.
ASSAY_TEXT: Cmax in Sprague-Dawley rat at 25 mg/kg, po by LC-MS/MS method
Format: ADME, organism-based
Design: dose 25 mg/kg, route oral
MEASUREMENT_SETUP: Sprague-Dawley, in vivo
Give bare numbers, in ng/mL.

In: Which Cmax value is on record for NNC(=O)c1ccncc1 [ISONIAZID] ?
Out: 13500

In: Which Cmax value is on record for CCN(CC)CC.Nc1nc(-c2ccccc2)nc2c1ncn2[C@@H]1O[C@H](CNS(=O)(=O)NC(=O)c2ccccc2O)[C@@H](O)[C@H]1F ?
Out: 500

For each listed entry, give its Cmax.
1. CCN(CC)CC.Nc1ccc(C(=O)NS(=O)(=O)NC[C@H]2O[C@@H](n3cnc4c(N)ncnc43)[C@H](O)[C@@H]2O)c(O)c1
2. CC(=O)Oc1ccccc1C(=O)NS(=O)(=O)OC[C@H]1O[C@@H](n2cnc3c(N)ncnc32)[C@H](OC(C)=O)[C@@H]1OC(C)=O.CCN(CC)CC
3. CCN(CC)CC.Nc1ncnc2c1ncn2[C@@H]1O[C@H](CNS(=O)(=O)NC(=O)c2ccccc2O)[C@@H](O)[C@H]1O
4. CCN(CC)CC.Nc1ncnc2c1ncn2[C@@H]1O[C@H](CNS(=O)(=O)NC(=O)c2ccccc2O)C[C@H]1F
5. CCN(CC)CC.O=C(NS(=O)(=O)NC[C@H]1O[C@@H](n2cnc3c(NC4CC4)ncnc32)[C@H](O)[C@@H]1O)c1ccccc1O
6. CCN(CC)CC.Nc1ncnc2c1ncn2[C@@H]1O[C@H](CNS(=O)(=O)NC(=O)c2ccccc2O)[C@@H](O)[C@H]1F

Out:
1: 90; 2: 30; 3: 700; 4: 560; 5: 140; 6: 460

For each listed entry, give its Cmax.
1. CCN(CC)CC.Nc1ncnc2c1ncn2[C@@H]1O[C@H](COS(=O)(=O)NC(=O)c2ccccc2O)[C@@H](O)[C@H]1O
2. CCN(CC)CC.O=C(NS(=O)(=O)NC[C@H]1O[C@@H](n2cnc3c(NC4CC4)nc(-c4ccccc4)nc32)[C@H](O)[C@@H]1O)c1ccccc1O

Out:
400
100

====

For each record, write down the corresponding Papp.
Test system: Caco-2
ASSAY_TEXT: Apparent permeability from apical to basolateral side in human Caco2 cells after 30 to 120 mins by HPLC method
Assay type: ADME, cell-based
Answers are plain numbers, in ×10⁻⁶ cm/s.

In: Which Papp value is on record for CCN(CC)CC.Nc1ncnc2c1ncn2[C@@H]1O[C@H](COS(=O)(=O)NC(=O)c2ccccc2O)[C@@H](O)[C@H]1O ?
Out: 1.23

In: Which Papp value is on record for CCN(CC)CC.Nc1ncnc2c1ncn2[C@@H]1O[C@H](CNS(=O)(=O)NC(=O)c2ccccc2O)[C@@H](O)[C@H]1F ?
Out: 4.2

In: Which Papp value is on record for CCN(CC)CC.O=C(NS(=O)(=O)NC[C@H]1O[C@@H](n2cnc3c(NC4CC4)nc(-c4ccccc4)nc32)[C@H](O)[C@@H]1O)c1ccccc1O ?
Out: 0.52

Please find the next compound below.
In: Which Papp value is on record for CCN(CC)CC.Nc1ncnc2c1ncn2[C@@H]1O[C@H](CNS(=O)(=O)NC(=O)c2ccccc2O)[C@@H](O)[C@H]1O ?
Out: 1.23
